# System: Aspergillus fumigatus
# protocolDetails: Antifungal activity against Aspergillus fumigatus by broth dilution assay
# Assay type: functional
readoutKind: MIC

See these solved cases before continuing.
compound: C=C(C)COc1ccc(C(=O)OC)cc1C=O
MIC: 50 µg/mL

compound: CC1=CC=C(CC2CCOC2=O)C(=O)OC1 (stereo not drawn)
MIC: > 100 µg/mL

compound: CC(=O)OCC1=C[C@@]2(CC=C(C)C)C(=O)O[C@H]2C1
MIC: > 100 µg/mL

compound: CC(C)=C/C=C/C=C1\CCOC1=O
MIC: > 100 µg/mL

Query block: Please report MIC with Aspergillus fumigatus for item `C=C(C)COc1ccc(C(=O)OC)cc1CO` .
Result block: > 100 µg/mL

Query block: Please report MIC with Aspergillus fumigatus for item `CC(C)=CC[C@@]12C=C(CO)C[C@@H]1OC2=O` .
Result block: > 100 µg/mL

Query block: Please report MIC with Aspergillus fumigatus for item `COC(=O)c1ccc(OC=C(C)C)c(CO)c1` .
Result block: 50 µg/mL

Query block: Please report MIC with Aspergillus fumigatus for item `COC(=O)c1ccc(OC=C(C)C)cc1` .
Result block: > 100 µg/mL

All figures here come from ChEMBL document CHEMBL3853280.
